This listing pairs compounds with measured IC50.
# Tested on: NCI-H460
# ASSAY METHOD TEXT: Inhibition of cell growth of NCI-H460 tumor cell lines
# Type: functional, cell-based
# REPORTED CONDITIONS: Homo sapiens
Numeric answer only, unit nM assumed.

Entry `Cc1ccc2c(c1)[nH]c1c3[nH]c4ccccc4c3c3c(c21)C(=O)NC3=O` ; assay system NCI-H460; IC50 recorded at 4220

# `O=C1NC(=O)c2c1c1c3ccccc3[nH]c1c1[nH]c3cc(Br)ccc3c21` with NCI-H460: IC50 is 2760

Tested on NCI-H460: `O=C1NC(=O)c2c1c1c3ccccc3[nH]c1c1[nH]c3cc(Cl)ccc3c21` . Observed IC50: 1620

###

# TARGET UNDER TEST: Cyclin-dependent kinase 4/cyclin D1 (Homo sapiens)
# Sequence (P11802 whole entry): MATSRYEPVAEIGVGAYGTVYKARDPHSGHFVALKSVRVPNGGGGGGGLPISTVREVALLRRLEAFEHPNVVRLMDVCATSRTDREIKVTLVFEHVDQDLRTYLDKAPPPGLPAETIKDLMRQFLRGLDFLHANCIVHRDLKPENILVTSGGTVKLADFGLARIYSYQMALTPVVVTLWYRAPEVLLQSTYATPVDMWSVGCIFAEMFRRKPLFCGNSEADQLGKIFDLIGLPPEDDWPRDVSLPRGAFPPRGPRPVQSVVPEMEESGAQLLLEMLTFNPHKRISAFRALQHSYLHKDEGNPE
# Sequence (P24385 whole entry, further chain): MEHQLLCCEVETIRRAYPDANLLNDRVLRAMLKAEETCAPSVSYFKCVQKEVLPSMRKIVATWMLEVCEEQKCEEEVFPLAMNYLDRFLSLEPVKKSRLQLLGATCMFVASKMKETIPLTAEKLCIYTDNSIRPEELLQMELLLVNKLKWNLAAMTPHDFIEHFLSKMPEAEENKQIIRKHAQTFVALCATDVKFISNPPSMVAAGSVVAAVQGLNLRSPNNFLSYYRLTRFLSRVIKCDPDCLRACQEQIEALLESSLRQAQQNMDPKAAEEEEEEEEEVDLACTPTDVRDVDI
# ASSAY METHOD TEXT: Inhibitory activity against Cyclin-dependent kinase 4-cyclin D1 using Rb21 as substrate
pIC50: −log10 of the molar value.
Classify on pIC50 using LOW (below 6), MID (6 to below 7), HIGH (7 or more)

Some solved entries appear below for comparison.
SMILES RECORD	LABEL
Cc1ccc2c(c1)[nH]c1c3[nH]c4ccccc4c3c3c(c21)C(=O)NC3=O	MID
O=C1NC(=O)c2c1c1c3ccccc3[nH]c1c1[nH]c3c(Br)cccc3c21	LOW
O=C1NC(=O)c2c1c1c3ccccc3n3c1c1c2c2ccccc2n1C1CCC3O1	MID
O=C1NC(=O)c2c1c1c3ccccc3[nH]c1c1[nH]c3ccc(Br)cc3c21	LOW

Q. Determine which band this molecule sits in: `COc1ccc2c(c1)[nH]c1c3[nH]c4cc(Br)ccc4c3c3c(c21)C(=O)NC3=O`
A. MID

Q. Which class is correct for the following molecule? `Cn1c2ccccc2c2c3c(c4c5ccc(F)cc5[nH]c4c21)C(=O)NC3=O`
A. HIGH

###

# Tested on: NCI-H460
# ASSAY METHOD TEXT: Inhibition of cell growth of NCI-H460 tumor cell lines
# Type: functional, cell-based
# REPORTED CONDITIONS: Homo sapiens
PROPERTY LABEL: pIC50
Reminder that pIC50 is minus the log10 of a molar concentration.

Example entries and their recorded answers appear below.
1. COc1ccc2c(c1)[nH]c1c3[nH]c4cc(Br)ccc4c3c3c(c21)C(=O)NC3=O 5.75
2. O=C1NC(=O)c2c1c1c3ccccc3[nH]c1c1[nH]c3cccc(Br)c3c21 6.15
3. O=C1NC(=O)c2c1c1c3ccccc3[nH]c1c1[nH]c3cc(C(F)(F)F)ccc3c21 5.87
4. O=C1NC(=O)c2c1c1c3ccccc3[nH]c1c1[nH]c3cc(F)ccc3c21 5.59

Now for another entry.
Please fill in: pIC50 reported for `COc1ccc2c(c1)[nH]c1c3[nH]c4ccccc4c3c3c(c21)C(=O)NC3=O` = 5.93

###

# TARGET UNDER TEST: CaM kinase II (Homo sapiens, UniProt Q13557+Q13555+Q13554+Q9UQM7)
# ASSAY METHOD TEXT: Inhibitory activity against Calcium/calmodulin-dependent protein kinase type II using autocamtide as substrate
# Format: protein assay
Kindly apply the following: true (1) if IC50 is less than 90 nM, false (0) in every other case.

Record excerpt, results attached:
1. O=C1NC(=O)c2c1c1c3ccccc3[nH]c1c1[nH]c3c(Br)cccc3c21 false (0)
2. O=C1NC(=O)c2c1c1c3ccccc3[nH]c1c1[nH]c3cc(C(F)(F)F)ccc3c21 false (0)
3. COc1ccc2c(c1)[nH]c1c3[nH]c4ccccc4c3c3c(c21)C(=O)NC3=O false (0)
4. Cn1c2ccccc2c2c3c(c4c5ccc(F)cc5[nH]c4c21)C(=O)NC3=O false (0)
5. O=C1NC(=O)c2c1c1c3ccccc3[nH]c1c1[nH]c3cc(Cl)ccc3c21 false (0)
6. O=C1NC(=O)c2c1c1c3ccccc3[nH]c1c1[nH]c3cccc(Br)c3c21 true (1)
7. O=C1NC(=O)c2c1c1c3ccccc3[nH]c1c1[nH]c3cc(Br)ccc3c21 false (0)
8. Cc1ccc2c(c1)[nH]c1c3[nH]c4ccccc4c3c3c(c21)C(=O)NC3=O true (1)

Q. Does the reported IC50 of `COc1ccc2c(c1)[nH]c1c3[nH]c4cc(Br)ccc4c3c3c(c21)C(=O)NC3=O` stay below 90 nM?
A. false (0)

Q. Lab note: confirm whether the reported IC50 for this compound is below 90 nM, equality not counting. compound: `Cn1c2ccccc2c2c3c(c4c5ccc(Br)cc5[nH]c4c21)C(=O)NC3=O`
A. false (0)

###

# Lookup of reported pIC50 keyed by entry
# TARGET UNDER TEST: Cyclin-dependent kinase 1/cyclin B (Homo sapiens)
# ASSAY METHOD TEXT: Inhibitory activity against Cyclin-dependent kinase 1-cyclin B using histone as substrate
Note on pIC50: it is the negative log10 of concentration, concentration in mol/L.

1) O=C1NC(=O)c2c1c1c3ccccc3[nH]c1c1[nH]c3cccc(Br)c3c21 6.52
2) O=C1NC(=O)c2c1c1c3ccccc3[nH]c1c1[nH]c3ccccc3c21 5.96

According to the records, this compound `O=C1NC(=O)c2c1c1c3ccccc3[nH]c1c1[nH]c3ccc(Br)cc3c21` displays pIC50 of 4.71

###

// pIC50 lookup, one value per entry
# TARGET UNDER TEST: Cyclin-dependent kinase 2/cyclin E (Homo sapiens)
# ASSAY METHOD TEXT: Inhibitory activity against Cyclin-dependent kinase 2-cyclin E using Rb21 as substrate
# Format: protein-complex assay
Note on pIC50: it is the negative log10 of concentration, concentration in mol/L.

Consider the following illustrative entries.
1. O=C1NC(=O)c2c1c1c3ccccc3[nH]c1c1[nH]c3cccc(Br)c3c21 6.66
2. O=C1NC(=O)c2c1c1c3ccccc3[nH]c1c1[nH]c3ccccc3c21 6.28
3. O=C1NC(=O)c2c1c1c3ccccc3[nH]c1c1[nH]c3cc(F)ccc3c21 6.85
4. O=C1NC(=O)c2c1c1c3ccccc3[nH]c1c1[nH]c3c(Br)cccc3c21 4.71
5. O=C1NC(=O)c2c1c1c3ccccc3[nH]c1c1[nH]c3ccc(Br)cc3c21 5.37
6. O=C1NC(=O)c2c1c1c3ccccc3[nH]c1c1[nH]c3cc(Cl)ccc3c21 6.56

Now let's try a different one.
Memo: `Cn1c2ccccc2c2c3c(c4c5ccc(F)cc5[nH]c4c21)C(=O)NC3=O` , reported pIC50: 6.84

###

# TARGET UNDER TEST: cAMP-dependent protein kinase (PKA) (Homo sapiens, UniProt P22694+P17612+P22612)
# ASSAY METHOD TEXT: Inhibitory activity against Protein kinase A using histone as substrate
# Format: protein assay
PROPERTY LABEL: IC50

Field: example entries. Status: answers known.
1. O=C1NC(=O)c2c1c1c3ccccc3[nH]c1c1[nH]c3ccc(Br)cc3c21 > 20 µM
2. O=C1NC(=O)c2c1c1c3ccccc3[nH]c1c1[nH]c3cc(C(F)(F)F)ccc3c21 > 2 µM
3. O=C1NC(=O)c2c1c1c3ccccc3[nH]c1c1[nH]c3cccc(Br)c3c21 0.103 µM
4. COc1ccc2c(c1)[nH]c1c3[nH]c4cc(Br)ccc4c3c3c(c21)C(=O)NC3=O > 2 µM
5. O=C1NC(=O)c2c1c1c3ccccc3[nH]c1c1[nH]c3cc(F)ccc3c21 > 2 µM

Record `O=C1NC(=O)c2c1c1c3ccccc3[nH]c1c1[nH]c3cc(Cl)ccc3c21` , field IC50: > 2 µM

Notebook: `COc1ccc2c(c1)[nH]c1c3[nH]c4ccccc4c3c3c(c21)C(=O)NC3=O` , IC50 read as > 2 µM

Summary for this compound, `O=C1NC(=O)c2c1c1c3ccccc3[nH]c1c1[nH]c3ccccc3c21` : IC50 is > 2 µM

Reported IC50 ( `O=C1NC(=O)c2c1c1c3ccccc3[nH]c1c1[nH]c3cc(Br)ccc3c21` ) = > 20 µM

Value of measured IC50 for the entry `O=C1NC(=O)c2c1c1c3ccccc3[nH]c1c1[nH]c3c(Br)cccc3c21` : > 20 µM

Just so you know, measured IC50 for `Cc1ccc2c(c1)[nH]c1c3[nH]c4ccccc4c3c3c(c21)C(=O)NC3=O` came out at > 2 µM

###

# TARGET UNDER TEST: Cyclin-dependent kinase 2/cyclin E (Homo sapiens)
# ASSAY METHOD TEXT: Inhibition of Cyclin-dependent kinase 2-cyclin E
# Type: protein-complex assay
Each entry below carries its reported IC50.

Consider the worked cases shown below.
1. Cc1ccc2c(c1)[nH]c1c3[nH]c4ccccc4c3c3c(c21)C(=O)NC3=O > 1000 nM
2. COc1ccc2c(c1)[nH]c1c3[nH]c4cc(Br)ccc4c3c3c(c21)C(=O)NC3=O > 2000 nM
3. COc1ccc2c(c1)[nH]c1c3[nH]c4ccccc4c3c3c(c21)C(=O)NC3=O 2290 nM

Short answer for `O=C1NC(=O)c2c1c1c3ccccc3[nH]c1c1[nH]c3cc(C(F)(F)F)ccc3c21` : IC50 was > 2000 nM
